viability, T/C listing for selected compounds.
Tested on: 242566-281-R-J2-PDC complex spheroid viability;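 also: spheroids exposed to compound for 7 days before readout; 100% = DMSO vehicle control wells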
measurement-description: Anticancer human tumor 242566-281-R-J2-PDC patient-derived pancreatic carcinoma cell line growth inhibition [RAS]
condition-context: second compound 0.0949 µM; first compound 0.316 µM; active compounds read low
From the text: RAS pathway inhibitors in Combinations in Complex Spheroids A high-throughput screen of multi-cell type tumor spheroids was designed to identify active combinations of RAS pathway inhibitors and targeted small molecules. Complex spheroids include a stromal component modeled by human endothelial cells (HUVEC) and fibroblasts modeled by human mesenchymal stem cells (MSCs). […] Compounds. […] If the clinical Cmax for an agent had not been determined, the highest concentration tested was 10 microM. […]
The reply should be a number in %, with the unit left off.

Solved cases below.
Give the reported viability, T/C for this compound. C[C@@H](NC(=O)c1ncnc(N)c1Cl)c1ncc(C(=O)Nc2cc(C(F)(F)F)c(Cl)cn2)s1 + CCn1c(-c2cc(N3CCN(C)CC3)cnc2C(C)OC)c2c3cc(ccc31)-c1csc(n1)CC(NC(=O)C1CC1C)C(=O)N1CCCC(N1)C(=O)OCC(C)(C)C2 25.7

Give the reported viability, T/C for this compound. Nc1ccn(C2OC(CO)C(O)C2(F)F)c(=O)n1 (stereo unspecified) + CCn1c(-c2cccnc2C(C)OC)c2c3cc(ccc31)N1CCOC(CC(NC(=O)C(C(C)C)N(C)C(=O)C3(F)CCN(C(=O)C#CC(C)(C)N(C)C)CC3)C(=O)N3CCCC(N3)C(=O)OCC(C)(C)C2)C1 14.1

Give the reported viability, T/C for this compound. CCN1CCN(Cc2ccc(Nc3ncc(F)c(-c4cc(F)c5nc(C)n(C(C)C)c5c4)n3)nc2)CC1 + CCn1c(-c2cccnc2C(C)OC)c2c3cc(ccc31)N1CCOC(CC(NC(=O)C(C(C)C)N(C)C(=O)C3(F)CCN(C(=O)C#CC(C)(C)N(C)C)CC3)C(=O)N3CCCC(N3)C(=O)OCC(C)(C)C2)C1 83.8

Give the reported viability, T/C for this compound. CC(=O)OC12COC1CC(O)C1(C)C(=O)C(O)C3=C(C)C(OC(=O)C(O)C(NC(=O)OC(C)(C)C)c4ccccc4)CC(O)(C(OC(=O)c4ccccc4)C21)C3(C)C (stereo unspecified) + CCn1c(-c2cc(N3CCN(C)CC3)cnc2C(C)OC)c2c3cc(ccc31)-c1csc(n1)CC(NC(=O)C1CC1C)C(=O)N1CCCC(N1)C(=O)OCC(C)(C)C2 13.4

Give the reported viability, T/C for this compound. C[C@@H](NC(=O)c1ncnc(N)c1Cl)c1ncc(C(=O)Nc2cc(C(F)(F)F)c(Cl)cn2)s1 + CCn1c(-c2cccnc2C(C)OC)c2c3cc(ccc31)N1CCOC(CC(NC(=O)C(C(C)C)N(C)C(=O)C3(F)CCN(C(=O)C#CC(C)(C)N(C)C)CC3)C(=O)N3CCCC(N3)C(=O)OCC(C)(C)C2)C1 90.7

Continuing:
Give the reported viability, T/C for this compound. C=CC(=O)Nc1cc(Nc2nccc(-c3cn(C)c4ccccc34)n2)c(OC)cc1N(C)CCN(C)C + CCn1c(-c2cc(N3CCN(C)CC3)cnc2C(C)OC)c2c3cc(ccc31)-c1csc(n1)CC(NC(=O)C1CC1C)C(=O)N1CCCC(N1)C(=O)OCC(C)(C)C2 13
